Molecular target: T1, 4H3120-AA
T1 chain: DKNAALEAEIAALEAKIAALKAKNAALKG
Assay: two-hybrid library CCmax;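 also: natural log of median RNA to DNA barcode read ratio; higher means stronger binding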
Conditions: mean of both orientations
Assay Readout: interaction score
Lab note: jot down the number only; don't add units.

Retrieve interaction score measured for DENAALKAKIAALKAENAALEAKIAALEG [4H1877-AA] and print it.
-1.28

Retrieve interaction score measured for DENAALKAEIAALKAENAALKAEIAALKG [4H1626-AA] and print it.
-1.91

Retrieve interaction score measured for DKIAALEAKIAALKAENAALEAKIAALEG [4H2389-AA] and print it.
-0.79

Retrieve interaction score measured for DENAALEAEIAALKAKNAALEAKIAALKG [4H1142-AA] and print it.
-1.55

Retrieve interaction score measured for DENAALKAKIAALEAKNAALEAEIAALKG [4H1842-AA] and print it.
-1.44

Retrieve interaction score measured for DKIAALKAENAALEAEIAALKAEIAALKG [4H2698-AA] and print it.
-1.3

Retrieve interaction score measured for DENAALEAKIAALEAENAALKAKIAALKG [4H1310-AA] and print it.
-1.24

Retrieve interaction score measured for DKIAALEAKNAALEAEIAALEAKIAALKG [4H2438-AA] and print it.
-0.892

Retrieve interaction score measured for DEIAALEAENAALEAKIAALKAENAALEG [4H171-AA] and print it.
-1.42

From: paper PMC10397247
